These entries and their values trace back to patent EP4759807A1.

Recorded DC50, one value per entry.
# MEASURED TARGET: IRAK4 (Homo sapiens)
# Sequence (Q9NWZ3 whole entry, species assumed): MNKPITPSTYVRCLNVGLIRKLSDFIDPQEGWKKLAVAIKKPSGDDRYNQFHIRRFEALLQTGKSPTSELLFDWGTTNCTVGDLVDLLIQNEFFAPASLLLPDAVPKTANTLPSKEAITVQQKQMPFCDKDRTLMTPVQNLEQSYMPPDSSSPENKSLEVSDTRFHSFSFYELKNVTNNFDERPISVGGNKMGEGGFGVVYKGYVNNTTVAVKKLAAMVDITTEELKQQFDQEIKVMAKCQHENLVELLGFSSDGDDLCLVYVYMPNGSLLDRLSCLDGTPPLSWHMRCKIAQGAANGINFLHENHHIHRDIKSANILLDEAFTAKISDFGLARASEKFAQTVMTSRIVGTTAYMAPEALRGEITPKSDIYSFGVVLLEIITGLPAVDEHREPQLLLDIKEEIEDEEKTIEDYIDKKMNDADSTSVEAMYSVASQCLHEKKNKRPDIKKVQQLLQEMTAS
# EXPERIMENT SUMMARY: WB detection of proteolysis (Western Blot, THP-1 cells)
# Format: cell-based
# ASSAY CONDITIONS: Western Blot, THP-1 cells, 24 h; read-out: DC50

MOLECULE	DC50
C[C@H]1CN(c2cccc3c2n(C)c(=O)n3C2CCC(=O)NC2=O)CCN1C[C@H]1CC[C@H](n2cc(-n3cc(-c4cnn5ccc(N6CCC[C@H](O)C6)nc45)nn3)c(C(F)F)n2)CC1 (some centres unmarked) [Example 287]	< 10 nM
Cn1c(=O)n(C2CCC(=O)NC2=O)c2cccc(C3CCN(C[C@H]4CC[C@H](n5cc(-n6cc(-c7ccc8cc(C(N)=O)cnn78)nn6)c(C(F)F)n5)CC4)CC3)c21 (some centres unmarked) [Example 84]	< 10 nM
Cn1c(=O)n(C2CCC(=O)NC2=O)c2cccc(N3CCC(N4CCN(C[C@H]5CC[C@H](n6cc(-n7cc(-c8cnn9ccc(N[C@H]%10CCCC[C@H]%10O)nc89)nn7)c(C(F)F)n6)CC5)CC4)CC3)c21 (some centres unmarked) [Example 122]	< 10 nM
Cn1c(=O)n(C2CCC(=O)NC2=O)c2cccc(N3CCN(C[C@H]4CC[C@H](n5cc(-n6cc(-c7cnn8ccc(N9CCC(O)CC9)nc78)nn6)c(C(F)F)n5)CC4)CC3)c21 (some centres unmarked) [Example 140]	10 to 30 nM
Cn1c(=O)n(C2CCC(=O)NC2=O)c2cccc(N3CCC(N4CCN(C[C@H]5CC[C@H](n6cc(-n7cc(-c8cnn9ccc(N[C@@H]%10CCCC[C@@H]%10O)nc89)nn7)c(C(F)F)n6)CC5)CC4)CC3)c21 (some centres unmarked) [Example 155]	< 10 nM
